Biological target: human Tyro3 (Homo sapiens, UniProt Q06418)
Construct: GST (N)
Experiment: Kinase enzymatic activity assay (33P-radiolabeled phosphate transfer), Tyro3
Settings: recombinant human Tyro3 (455-end), poly(4:1 glu:tyr) substrate, 30 minutes
pIC50: −log10 of the molar value.
// pIC50 lookup, one value per entry

| compound | pIC50 |
| --- | --- |
| CN1CCN(CCOc2cc(OC3CCOCC3)c3c(Oc4ccccc4)ncnc3c2)CC1 [Example 3.2] | > 6.30 |
| CN1CCN(CCCOc2cc(OC3CCOCC3)c3c(Oc4ccc(F)cc4Cl)ncnc3c2)CC1 [Example 2.63] | > 6.30 |
| CN1CCC(COc2cc(OC3CCOCC3)c3c(Sc4nc(C(F)(F)F)cs4)ncnc3c2)CC1 [Example 2.50] | < 5.00 |
| CN1CCN(c2cc(OCCCN3CCOCC3)cc3ncnc(Oc4ccc(F)cc4Cl)c23)CC1 [Example 4.9] | > 6.30 |
| CN1CCC(COc2cc(OC3CCOCC3)c3c(Nc4nnc(C(F)(F)F)s4)ncnc3c2)CC1 [Example 2.37] | < 5.00 |
| Cc1cnc(Nc2ncnc3cc(OCC4CCN(C)CC4)cc(OC4CCOCC4)c23)s1 [Example 2.43] | 5.00 to 6.00 |
| COc1cc(N2CCN(C)CC2)cc2ncnc(Nc3nc(C(F)(F)F)cs3)c12 [Example 2.25] | < 5.00 |
| CN(C)CCOCCOc1cc(OC2CCOCC2)c2c(Nc3nc(C(F)(F)F)cs3)ncnc2c1 [Example 2.56] | < 5.00 |
| COc1cc(OCCCN2CCOCC2)cc2ncnc(Oc3ccc(F)cc3Cl)c12 [Example 2.17] | > 6.30 |

---

Target: human Mer (Homo sapiens, UniProt Q12866)
Construct: GST (N)
Sequence (Q12866 578-872): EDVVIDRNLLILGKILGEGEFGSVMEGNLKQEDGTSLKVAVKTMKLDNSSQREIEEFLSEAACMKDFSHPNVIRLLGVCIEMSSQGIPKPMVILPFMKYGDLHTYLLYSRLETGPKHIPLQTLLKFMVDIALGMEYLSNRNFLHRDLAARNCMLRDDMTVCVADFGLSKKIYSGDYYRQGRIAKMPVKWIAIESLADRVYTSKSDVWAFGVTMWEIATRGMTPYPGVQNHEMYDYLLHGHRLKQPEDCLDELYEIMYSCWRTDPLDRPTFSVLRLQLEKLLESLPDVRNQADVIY
Assay: Kinase enzymatic activity assay (33P-radiolabeled phosphate transfer), Mer
Conditions: recombinant human Mer (578-872), poly(4:1 glu:tyr) substrate, 30 minutes
measured.quantity: IC50

| smiles.str | value |
| --- | --- |
| COc1ncnc2cc(OCCOCCN(C)C)cc(OC3CCOCC3)c12 | > 10 µM |
| COCCN(C)CCOc1cc(OC2CCOCC2)c2c(Oc3ccc(F)cc3Cl)ncnc2c1 | 1 to 10 µM |
| COCCOc1cc(OCCN2CCN(C)CC2)cc2ncnc(Sc3ccc(F)c(Br)c3)c12 | > 10 µM |
| Cc1cc(Nc2ncnc3cc(OCC4CCN(C)CC4)cc(OC4CCOCC4)c23)on1 | 1 to 10 µM |
| Fc1ccc(Oc2ncnc3cc(OCCN4CCOCC4)cc(OC4CCOCC4)c23)c(Cl)c1 | 0.5 to 1 µM |
| Cc1csc(Sc2ncnc3cc(OCC4CCN(C)CC4)cc(OC4CCOCC4)c23)n1 | 1 to 10 µM |
| COC(=O)Cc1cccc(Oc2ncnc3cc(OCCN4CCN(C)CC4)cc(OC4CCOCC4)c23)c1 | > 10 µM |
| COCCOCCOc1cc(OC2CCOCC2)c2c(Oc3ccc(F)cc3Cl)ncnc2c1 | 1 to 10 µM |

---

// IC50 lookup, one value per entry
Biological target: human Tyro3 (Homo sapiens)
Construct: GST (N)
Sequence (Q06418 455-890 limits assumed): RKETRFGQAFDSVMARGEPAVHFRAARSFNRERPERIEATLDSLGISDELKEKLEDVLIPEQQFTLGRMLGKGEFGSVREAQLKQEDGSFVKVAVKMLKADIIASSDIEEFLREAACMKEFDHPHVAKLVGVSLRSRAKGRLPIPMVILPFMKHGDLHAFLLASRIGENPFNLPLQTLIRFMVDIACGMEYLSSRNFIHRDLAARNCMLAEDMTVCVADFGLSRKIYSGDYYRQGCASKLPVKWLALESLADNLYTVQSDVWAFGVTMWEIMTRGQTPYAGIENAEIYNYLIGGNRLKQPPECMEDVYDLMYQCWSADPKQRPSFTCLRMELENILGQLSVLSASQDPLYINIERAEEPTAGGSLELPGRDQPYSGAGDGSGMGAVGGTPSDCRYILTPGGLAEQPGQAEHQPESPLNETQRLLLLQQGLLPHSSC
Assay: Kinase enzymatic activity assay (33P-radiolabeled phosphate transfer), Tyro3
Settings: recombinant human Tyro3 (455-end), poly(4:1 glu:tyr) substrate, 30 minutes

| compound | experimental.system | IC50 |
| --- | --- | --- |
| COCCN(C)CCOc1cc(OC2CCOCC2)c2c(Oc3ccc(F)cc3Cl)ncnc2c1 [Example 2.3] | human Tyro3 (Homo sapiens) | 500 to 1000 nM |
| CC1(C)OC[C@H](COc2cc(OC3CCOCC3)c3c(Oc4ccc(F)cc4Cl)ncnc3c2)O1 [Example 2.9] | human Tyro3 (Homo sapiens) | 1000 to 10000 nM |
| CN(C)CCC1CCN(c2cc(OC3CCOCC3)c3c(Nc4nc(C(F)(F)F)cs4)ncnc3c2)CC1 [Example 2.44] | human Tyro3 (Homo sapiens) | 1000 to 10000 nM |
| FC(F)(F)c1csc(Nc2ncnc3cc(OCCN4CCOCC4)cc(OC4CCOCC4)c23)n1 [Example 2.53] | human Tyro3 (Homo sapiens) | > 10000 nM |
| COc1cc(OC2CCOCC2)c2c(Oc3ccc(F)cc3Cl)ncnc2c1 [Example 3.1] | human Tyro3 (Homo sapiens) | 500 to 1000 nM |
| COC(=O)Cc1cccc(Oc2ncnc3cc(OCCN4CCN(C)CC4)cc(OC4CCOCC4)c23)c1 [Example 2.31] | human Tyro3 (Homo sapiens) | 500 to 1000 nM |
| CN1CCC(COc2cc(OC3CCOCC3)c3c(Oc4ccc(F)cc4Cl)ncnc3c2)CC1 [Example 4.7] | human Tyro3 (Homo sapiens) | < 500 nM |
| CN1CCN(CCOc2cc(OC3CCOCC3)c3c(OC4CCCCC4)ncnc3c2)CC1 [Example 3.4] | human Tyro3 (Homo sapiens) | 1000 to 10000 nM |
| COCCN1CCN(c2cc(OC3CCOCC3)c3c(Nc4nc(C(F)(F)F)cs4)ncnc3c2)CC1 [Example 2.41] | human Tyro3 (Homo sapiens) | > 10000 nM |
| COc1ncnc2cc(OCCOCCN(C)C)cc(OC3CCOCC3)c12 [Example 2.16] | human Tyro3 (Homo sapiens) | 1000 to 10000 nM |
| CN(C)CCN1CCN(c2cc(OC3CCOCC3)c3c(Nc4nc(C(F)(F)F)cs4)ncnc3c2)CC1 [Example 2.57] | human Tyro3 (Homo sapiens) | 1000 to 10000 nM |
| CN(C)CCCN(C)c1cc(OC2CCOCC2)c2c(Nc3nc(C(F)(F)F)cs3)ncnc2c1 [Example 2.59] | human Tyro3 (Homo sapiens) | > 10000 nM |
| c1nc(Nc2nncs2)c2c(OC3CCOCC3)cc(OCCCN3CCOCC3)cc2n1 [Example 2.19] | human Tyro3 (Homo sapiens) | 1000 to 10000 nM |
| COC(=O)c1cccc(Oc2ncnc3cc(OCCCN4CCOCC4)cc(OC)c23)c1 [Example 2.26] | human Tyro3 (Homo sapiens) | 1000 to 10000 nM |
| c1csc(Nc2ncnc3cc(OCCCN4CCOCC4)cc(OC4CCOCC4)c23)n1 [Example 2.21] | human Tyro3 (Homo sapiens) | 1000 to 10000 nM |
| COCCOc1cc(OCCN2CCN(C)CC2)cc2ncnc(Sc3cc(Cl)cc(Cl)c3)c12 [Example 4.2] | human Tyro3 (Homo sapiens) | 1000 to 10000 nM |
| CN1CCC(COc2cc(OC3CCOCC3)c3c(Nc4nc(C(F)(F)F)cs4)ncnc3c2)CC1 [Example 2.23] | human Tyro3 (Homo sapiens) | > 10000 nM |

---

Biological target: human Mer (Homo sapiens)
Construct: GST (N)
Experiment: Kinase enzymatic activity assay (33P-radiolabeled phosphate transfer), Mer
Conditions: recombinant human Mer (578-872), poly(4:1 glu:tyr) substrate, 30 minutes
// IC50 lookup, one value per entry

| compound | experimental.system | IC50 |
| --- | --- | --- |
| COCCOc1cc(OCCN2CCN(C)CC2)cc2ncnc(Sc3ccc(Cl)cc3Cl)c12 [Example 4.4] | human Mer (Homo sapiens) | > 10000 nM |
| CN1CCC(CCOc2cc(OC3CCOCC3)c3c(Nc4nc(C(F)(F)F)cs4)ncnc3c2)CC1 [Example 2.45] | human Mer (Homo sapiens) | 1000 to 10000 nM |
| COc1cc(OCC2CCN(C)CC2)cc2ncnc(Oc3ccc(F)cc3Cl)c12 [Example 2.34] | human Mer (Homo sapiens) | 500 to 1000 nM |
| CN1CCN(CCOc2cc(OC3CCOCC3)c3c(OC4CCCCC4)ncnc3c2)CC1 [Example 3.4] | human Mer (Homo sapiens) | 500 to 1000 nM |
| COc1cc(OCCCN2CCOCC2)cc2ncnc(Oc3cccc(CC(=O)NCc4ccccc4)c3)c12 [Example 2.29] | human Mer (Homo sapiens) | > 10000 nM |
| COC(=O)c1cccc(Oc2ncnc3cc(OCCN4CCN(C)CC4)cc(OC4CCOCC4)c23)c1 [Example 2.30] | human Mer (Homo sapiens) | > 10000 nM |
| c1nc(Nc2nncs2)c2c(OC3CCOCC3)cc(OCCCN3CCOCC3)cc2n1 [Example 2.19] | human Mer (Homo sapiens) | 1000 to 10000 nM |
